assay-target: ATP-dependent 6-phosphofructokinase (Trypanosoma brucei brucei) (UniProt O15648)
Sequence (O15648 whole entry, looked up): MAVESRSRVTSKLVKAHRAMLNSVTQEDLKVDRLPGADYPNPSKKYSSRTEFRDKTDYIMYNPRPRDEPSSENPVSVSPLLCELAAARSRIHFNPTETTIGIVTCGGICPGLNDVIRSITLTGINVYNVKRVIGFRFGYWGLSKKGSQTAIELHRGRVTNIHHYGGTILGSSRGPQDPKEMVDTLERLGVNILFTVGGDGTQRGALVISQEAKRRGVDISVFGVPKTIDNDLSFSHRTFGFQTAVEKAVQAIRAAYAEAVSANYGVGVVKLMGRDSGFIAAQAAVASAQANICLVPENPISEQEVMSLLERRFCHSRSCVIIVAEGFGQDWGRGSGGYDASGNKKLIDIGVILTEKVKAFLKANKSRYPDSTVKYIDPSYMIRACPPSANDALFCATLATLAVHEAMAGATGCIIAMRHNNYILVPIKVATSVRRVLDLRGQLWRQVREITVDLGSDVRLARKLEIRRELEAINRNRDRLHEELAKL
test-details: qHTS Validation Assay to Find Inhibitors of T. brucei phosphofructokinase (AID 485368)
test-context: T. brucei PFK enzyme assay, qHTS 7-point titration; series mostly up to 57.5 µM
Results filed as inconclusive are left out. Calls of active or inactive are those of the source. Calls come from the whole dose curve; as a rule, active = well fitted inhibition curve with a large enough effect; inconclusive = small, poorly fitted or top-dose-only effect, or effect the other way; inactive = flat fitted curve, though single readings scatter.
Outcomes: active, inactive

[[record]]
smiles_repr = "COC(=O)C1=CO[C@@H](O)[C@@H]2C(CO)=CC[C@H]12"
class_name = "inactive"

[[record]]
smiles_repr = "CCN(CC)CCNC(=O)c1ccc(NS(C)(=O)=O)cc1"
class_name = "inactive"

[[record]]
smiles_repr = "O=[N+]([O-])c1ccc(-c2nc(-c3ccc(F)cc3)c(-c3ccncc3)[nH]2)cc1"
class_name = "inactive"

[[record]]
smiles_repr = "O=C1NC(=O)/C(=C/c2ccc3c(c2)OC(F)(F)O3)S1"
class_name = "inactive"

[[record]]
smiles_repr = "CC(C)N(CCC(=O)c1ccc2ccccc2c1)Cc1ccccc1"
class_name = "active"

[[record]]
smiles_repr = "Clc1ccc2c(c1)N=C(N1CCNCC1)c1ccccc1N2"
class_name = "inactive"


* * *

System: MKL-2
test-details: qHTS assay to identify novel small-molecules to repurpose for Merkel cell carcinoma treatment (AID 1296009); note: nearly all actives have a fitted effect of over 60% in size; note: potency is the fitted concentration of half-maximal effect
test-context: MCC and control cell lines, CellTiter-Glo viability, 72 h; series mostly up to 46 µM
Description: MCC is a rare and aggressive neuroendocrine skin cancer with limited treatment options. Approximately 80% of MCCs have the Merkel cell polyomavirus (MCPyV) DNA integrated into the host genome (virus-positive: VP-MCC) and viral oncogenes drive oncogenesis. The remaining MCCs are virus-negative (VN-MCC) and are caused by UV mutagenesis. […] Using cell viability as a readout (CellTiter-Glo assay) we found both overlapping and distinct drugs that can be repurposed for the treatment of VP-MCC and VN-MCC. […]
Records with an inconclusive call do not appear. Calls of active or inactive are those of the source. Calls come from the whole dose curve; as a rule, active = well fitted inhibition curve with a large enough effect; inconclusive = small, poorly fitted or top-dose-only effect; inactive = flat fitted curve, though single readings scatter.
assay-metric: Potency

[[record]]
compound = "COC(=O)C1=C(C)NC(C)=C(C(=O)OCCc2ccc(N3CCN(C(c4ccccc4)c4ccccc4)CC3)cc2)C1c1cccc([N+](=O)[O-])c1 (stereo not drawn)"
reported_result = "inactive"

[[record]]
compound = "CCN(CC)C(=O)C1CN2CCc3cc(OC)c(OC)cc3C2CC1OC(C)=O (stereo not drawn)"
reported_result = "inactive"

[[record]]
compound = "CCCCCC1Nc2cc(C(F)(F)F)c(S(N)(=O)=O)cc2S(=O)(=O)N1 (stereo not drawn)"
reported_result = "inactive"

[[record]]
compound = "C#CC(C)(CC)OC(=O)c1ccccc1C(=O)O (stereo not drawn)"
reported_result = "inactive"

[[record]]
compound = "CC(=O)N[C@@H](CCC(N)=O)C(=O)O"
reported_result = "inactive"

[[record]]
compound = "COc1ccc(-n2nc(CCC(=O)N(C)O)cc2-c2ccc(Cl)cc2)cc1"
reported_result = "21.1 µM (active)"

[[record]]
compound = "Cc1nc(C2CCCCC2)c(-c2ccc(S(N)(=O)=O)c(F)c2)o1"
reported_result = "inactive"

[[record]]
compound = "CCOC(=O)N1CCC(Nc2ccc(Cl)cc2N)CC1"
reported_result = "26.6 µM (active)"

[[record]]
compound = "OCCOCCN1CCN(C(c2ccccc2)c2ccc(Cl)cc2)CC1 (stereo not drawn)"
reported_result = "inactive"

[[record]]
compound = "CC(CC(C#N)(c1ccccc1)C(C)C)N(C)C (stereo not drawn)"
reported_result = "inactive"

[[record]]
compound = "CCN(CC)CCN"
reported_result = "inactive"

[[record]]
compound = "CO[C@]1(NC(=O)CSC(F)F)C(=O)N2C(C(=O)O)=C(CSc3nnnn3CCO)CO[C@H]21"
reported_result = "inactive"

[[record]]
compound = "Cc1ccc(-c2ccccc2C#N)cc1"
reported_result = "inactive"

[[record]]
compound = "CCOc1ccc(NS(=O)(=O)c2ccc(N)cc2)nn1"
reported_result = "inactive"

[[record]]
compound = "Cc1onc(-c2ccccc2)c1C(=O)Cl"
reported_result = "inactive"

[[record]]
compound = "CCOC(=O)c1ccc(NC(=O)CN2CCCCC2)cc1"
reported_result = "inactive"

[[record]]
compound = "CCC(C(=O)OCCN1CCOC(c2ccccc2)C1C)c1ccccc1 (stereo not drawn)"
reported_result = "inactive"

[[record]]
compound = "O=C(O)c1[nH]n(-c2ccc(S(=O)(=O)O)cc2)c(=O)c1N=Nc1ccc(S(=O)(=O)O)cc1"
reported_result = "inactive"

[[record]]
compound = "COCCOCC(OC)OC"
reported_result = "inactive"

[[record]]
compound = "OC1(c2ccc(Cl)c(C(F)(F)F)c2)CCN(CCCC(c2ccc(F)cc2)c2ccc(F)cc2)CC1"
reported_result = "5.31 µM (active)"

[[record]]
compound = "CCOC(=O)CN1CCCC1=O"
reported_result = "inactive"

[[record]]
compound = "CCOC(=O)Oc1ccc(CCNC(=O)[C@H](CCSC)NC(C)=O)cc1OC(=O)OCC"
reported_result = "inactive"

[[record]]
compound = "CC[N+](CC)(CC)CCOC(=O)C(C1CCCC1)C1CCCC1"
reported_result = "5.96 µM (active)"


* * *

assay-target: Cytochrome P450 3A4 (Homo sapiens)
test-details: Cytochrome P450 family 3 subfamily A member 4 (CYP3A4) small molecule antagonists: luciferase qHTS assay (AID 1645841); note: nearly all actives have a fitted effect of over 45% in size
test-context: P450-Glo CYP3A4 enzyme assay, luciferin luminescence; series mostly up to 57.4 µM
Results filed as inconclusive are left out. Calls of active or inactive are those of the source. Calls follow the shape of the dose curve; as a rule, active = well fitted inhibition curve with a large enough effect in the repeat runs; inconclusive = weak or mixed curves; inactive = no such curve, though single readings can be large or run the other way.
Outcomes: true (active), false (inactive)

[[record]]
compound = "Nc1ccc2cc3ccc(N)cc3nc2c1"
assay_target = "Cytochrome P450 3A4 (Homo sapiens)"
class_name = "true"

[[record]]
compound = "NC(=O)NC1N=C([O][Al])NC1=O (stereo not given)"
assay_target = "Cytochrome P450 3A4 (Homo sapiens)"
class_name = "true"

[[record]]
compound = "CCCC(=O)O[C@]1(C(=O)COC(=O)CC)CC[C@H]2[C@@H]3CCC4=CC(=O)CC[C@]4(C)[C@H]3[C@@H](O)C[C@@]21C"
assay_target = "Cytochrome P450 3A4 (Homo sapiens)"
class_name = "false"

[[record]]
compound = "CC(=O)OCC(=O)Nc1cc(C#N)cc(NC(=O)COC(C)=O)c1Cl"
assay_target = "Cytochrome P450 3A4 (Homo sapiens)"
class_name = "false"

[[record]]
compound = "C[C@H](N)C(=O)N[C@@H](C)C(=O)NC1[C@H]2CN(c3nc4c(cc3F)c(=O)c(C(=O)O)cn4-c3ccc(F)cc3F)C[C@@H]12 (stereo not given in full)"
assay_target = "Cytochrome P450 3A4 (Homo sapiens)"
class_name = "false"


* * *

assay-target: D(1A) dopamine receptor (Homo sapiens) (UniProt P21728)
Sequence (P21728 whole entry, looked up): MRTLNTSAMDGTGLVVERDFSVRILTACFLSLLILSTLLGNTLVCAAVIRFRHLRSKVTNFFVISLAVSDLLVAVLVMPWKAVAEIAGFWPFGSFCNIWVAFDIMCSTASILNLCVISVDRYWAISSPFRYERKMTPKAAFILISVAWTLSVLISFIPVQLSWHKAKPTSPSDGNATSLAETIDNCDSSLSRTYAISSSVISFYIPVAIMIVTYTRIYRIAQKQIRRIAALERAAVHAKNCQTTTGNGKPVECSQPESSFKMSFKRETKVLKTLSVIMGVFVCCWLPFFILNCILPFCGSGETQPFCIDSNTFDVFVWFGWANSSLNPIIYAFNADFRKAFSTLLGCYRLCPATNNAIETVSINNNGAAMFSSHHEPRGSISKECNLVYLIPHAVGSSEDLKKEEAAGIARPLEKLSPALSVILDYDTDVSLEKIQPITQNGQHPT
test-details: HTS Assay for Allosteric Agonists of the Human D1 Dopamine Receptor: Primary Screen for Antagonists (AID 488983);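 note: calcium flux response to an EC80 dopamine challenge measured with no-wash dye; nearly all actives have a fitted effect of over 65% in size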
test-context: D1 receptor cell assay, antagonist mode, qHTS titration; series mostly up to 41.8 µM
Inconclusive results are not listed. Active and inactive are the calls of the source. The call rests on the fitted dose curve; in most records, active means well fitted inhibition curve with a large enough effect; inconclusive means small, poorly fitted or top-dose-only effect, or effect the other way; inactive means flat fitted curve, though single readings scatter.
Outcomes: 1 (active), 0 (inactive)

[[record]]
smiles_repr = "NC(N)=NCCCCN=C(N)N"
class_name = 0

[[record]]
smiles_repr = "Clc1ccc2c(c1)N=C(N1CCNCC1)c1ccccc1N2"
class_name = 1

[[record]]
smiles_repr = "Cc1nn(-c2ccccc2)c(C)c1/C=N/N1CCN(Cc2ccccc2)CC1"
class_name = 0

[[record]]
smiles_repr = "O=[N+]([O-])c1ccc(-c2nc(-c3ccc(F)cc3)c(-c3ccncc3)[nH]2)cc1"
class_name = 0

[[record]]
smiles_repr = "C[N+](C)(C)CCO"
class_name = 0

[[record]]
smiles_repr = "Cn1cnc2c(NCc3ccccc3)nc(NCCO)nc21"
class_name = 0

[[record]]
smiles_repr = "Brc1ccc([C@H]2CN3CCSC3=N2)cc1"
class_name = 0

[[record]]
smiles_repr = "O=C1NC(c2cccc([N+](=O)[O-])c2)=CCN1c1ccccc1O"
class_name = 0

[[record]]
smiles_repr = "CCN(CC)CCNC(=O)c1ccc(NS(C)(=O)=O)cc1"
class_name = 0

[[record]]
smiles_repr = "Nc1ncnc2n[nH]c(Nc3ccc(F)cc3)c12"
class_name = 0


* * *

Tested on: CP265
test-details: qHTS profiling for inhibitors of Plasmodium falciparum proliferation (AID 504749); note: nearly all actives have a fitted effect of over 60% in size
test-context: P. falciparum in erythrocytes, SYBR Green DNA, 72 h; series mostly up to 28.7 µM
Records with an inconclusive call do not appear. Active and inactive are the calls of the source. Calls follow the shape of the dose curve; as a rule, active = well fitted inhibition curve with a large enough effect; inconclusive = small, poorly fitted or top-dose-only effect; inactive = flat fitted curve, though single readings scatter.
Outcomes: Yes (active), No (inactive)

[[record]]
compound = "O=S(=O)(O)c1ccc2nc(-c3ccccc3)[nH]c2c1"
class_name = "No"

[[record]]
compound = "CN1CCCN(C(c2ccccc2)c2ccc(Cl)cc2)CC1 (stereo not given)"
class_name = "Yes"

[[record]]
compound = "O=C(Nc1ccc(Cl)cc1)Nc1ccc(Cl)c(Cl)c1"
class_name = "Yes"

[[record]]
compound = "CCCCCCCCCCCCCC[N+](C)(C)C"
class_name = "Yes"

[[record]]
compound = "CCCCCCCCCCCCCCCC[N+](C)(C)Cc1ccccc1"
class_name = "Yes"

